Entries and their pKa
TEST DETAILS: Ionization constant (pKa)
Type: physicochemical
API doc: respond with a numeric literal and nothing else, no unit.

Request: Identify the reported pKa for the following entry. Fc1cccc(Cl)c1N=C1NCCN1
Result: 8.01

Request: Identify the reported pKa for the following entry. c1ccc(NC2=NCCN2)cc1
Result: 10.1

Request: Identify the reported pKa for the following entry. CCc1ncc[nH]1
Result: 7.73

Request: Identify the reported pKa for the following entry. Fc1cccc(F)c1N=C1NCCN1
Result: 8.18

Request: Identify the reported pKa for the following entry. Cn1ccnc1[N+](=O)[O-]
Result: -0.48

Others:
Request: Identify the reported pKa for the following entry. c1ccn(-c2ncc[nH]2)c1
Result: 5.36

Request: Identify the reported pKa for the following entry. Cc1ccc(N=C2NCCN2)c(C)c1
Result: 10.6
